Target: recombinant hSSAO (Homo sapiens (Human), UniProt Q16853)
Sequence (Q16853 whole entry): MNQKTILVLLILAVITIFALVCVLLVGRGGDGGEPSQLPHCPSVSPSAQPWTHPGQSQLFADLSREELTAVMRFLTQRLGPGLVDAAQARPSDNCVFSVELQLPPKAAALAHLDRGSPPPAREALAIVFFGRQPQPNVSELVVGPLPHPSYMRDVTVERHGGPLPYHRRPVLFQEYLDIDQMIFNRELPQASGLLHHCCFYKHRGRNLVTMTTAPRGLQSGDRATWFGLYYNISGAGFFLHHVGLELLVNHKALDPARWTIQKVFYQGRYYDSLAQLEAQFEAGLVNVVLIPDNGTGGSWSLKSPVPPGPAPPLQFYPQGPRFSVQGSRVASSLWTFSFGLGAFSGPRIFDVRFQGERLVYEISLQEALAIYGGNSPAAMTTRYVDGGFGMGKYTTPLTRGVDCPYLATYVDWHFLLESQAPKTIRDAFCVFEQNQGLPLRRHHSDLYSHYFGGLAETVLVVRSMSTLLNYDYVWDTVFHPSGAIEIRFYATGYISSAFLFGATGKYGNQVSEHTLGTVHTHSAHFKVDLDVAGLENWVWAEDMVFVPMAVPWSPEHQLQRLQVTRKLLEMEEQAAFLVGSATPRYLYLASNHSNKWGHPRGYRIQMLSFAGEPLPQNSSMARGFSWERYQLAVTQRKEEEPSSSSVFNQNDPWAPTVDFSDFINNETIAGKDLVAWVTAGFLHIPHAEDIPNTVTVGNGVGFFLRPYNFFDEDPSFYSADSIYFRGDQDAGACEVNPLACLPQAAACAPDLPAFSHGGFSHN
Assay: SSAO Activity Assay (MAO-Glo assay kit)
Details: 40 μM substrate, 30 mins pre-incubation
measure: IC50

Examples from the recorded data:
[
  {
    "cpd smiles": "NC/C(=C\\F)COc1ccc(S(=O)(=O)CC2CCN(C(=O)CC(F)(F)F)CC2)c(F)c1",
    "IC50": "20 to 100 nM"
  },
  {
    "cpd smiles": "NC/C(=C\\F)COc1ccc(S(=O)(=O)CC23CCC(C(=O)N4CCCC4)(CC2)CC3)cc1",
    "IC50": "< 20 nM"
  },
  {
    "cpd smiles": "NC/C(=C\\F)COc1ccc(S(=O)(=O)CN2C(=O)C3(CC3)c3ccccc32)cc1",
    "IC50": "20 to 100 nM"
  },
  {
    "cpd smiles": "NC/C(=C\\F)COc1ccc(S(=O)(=O)CC2CCN(C(=O)C3CCC3)CC2)cc1",
    "IC50": "20 to 100 nM"
  },
  {
    "cpd smiles": "NC/C(=C\\F)COc1ccc(S(=O)(=O)CC23CCC(C(=O)N4CCC4)(CC2)CC3)cc1",
    "IC50": "< 20 nM"
  },
  {
    "cpd smiles": "NC/C(=C\\F)COc1ccc(S(=O)(=O)CC2CCN(C(=O)CC3CC3)CC2)cc1",
    "IC50": "20 to 100 nM"
  }
]

-- ask Look at this compound and give its reported IC50. "NC/C(=C\F)COc1ccc(S(=O)(=O)Cc2ccc(C(=O)NC3CCC3)c(C(F)(F)F)c2)cc1"
-- reply 100 to 500 nM

-- ask Look at this compound and give its reported IC50. "NC/C(=C\F)COc1ccc(S(=O)(=O)CC2(CN3CCOCC3)CC2)cc1"
-- reply 20 to 100 nM

###

Molecular target: recombinant hMAO-A (Homo sapiens (Human))
Sequence (P21397 whole entry): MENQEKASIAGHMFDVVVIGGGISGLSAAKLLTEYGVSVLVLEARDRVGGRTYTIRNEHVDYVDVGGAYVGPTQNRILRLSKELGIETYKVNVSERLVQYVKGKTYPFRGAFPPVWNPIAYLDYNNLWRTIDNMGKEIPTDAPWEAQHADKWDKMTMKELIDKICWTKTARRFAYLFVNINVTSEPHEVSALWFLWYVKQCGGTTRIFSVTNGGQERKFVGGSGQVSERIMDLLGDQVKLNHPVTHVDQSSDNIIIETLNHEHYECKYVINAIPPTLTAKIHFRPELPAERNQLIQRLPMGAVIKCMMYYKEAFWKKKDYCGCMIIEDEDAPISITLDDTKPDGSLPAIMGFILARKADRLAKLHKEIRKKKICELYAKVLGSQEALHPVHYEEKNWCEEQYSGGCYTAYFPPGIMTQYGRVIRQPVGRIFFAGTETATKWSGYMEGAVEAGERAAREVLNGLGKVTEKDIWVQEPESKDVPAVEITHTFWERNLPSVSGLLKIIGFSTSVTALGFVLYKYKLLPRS
Experiment: MAO-A activity assay (MAO-Glo assay kit)
Settings: 40 μM substrate, 30 mins pre-incubation
pIC50: −log10 of the molar value.
Recorded pIC50 for the following compounds

[
  {
    "compound": "CC(C)(C)C(=O)NC12CC(CS(=O)(=O)c3ccc(OC/C(=C/F)CN)cc3)(C1)C2",
    "measure": "pIC50",
    "assay result": "< 4.52"
  },
  {
    "compound": "NC/C(=C\\F)COc1ccc(S(=O)(=O)CCN2CCCCC2=O)cc1",
    "measure": "pIC50",
    "assay result": "< 4.52"
  }
]

-- ask Look at this compound and give its reported pIC50. "NC/C(=C\F)COc1ccc(S(=O)(=O)CN2CCCCC2=O)cc1"
-- reply < 4.52

-- ask Look at this compound and give its reported pIC50. CC(CN1C(=O)CCC1(C)C)CS(=O)(=O)c1ccc(OC/C(=C/F)CN)cc1 (stereo not drawn)
-- reply < 4.52

-- ask Look at this compound and give its reported pIC50. "NC/C(=C\F)COc1ccc(S(=O)(=O)CC2CCN(C(=O)C3CC(F)(F)C3)CC2)cc1"
-- reply < 4.52

###

Biological target: recombinant hMAO-B (Homo sapiens (Human))
Sequence (P27338 whole entry): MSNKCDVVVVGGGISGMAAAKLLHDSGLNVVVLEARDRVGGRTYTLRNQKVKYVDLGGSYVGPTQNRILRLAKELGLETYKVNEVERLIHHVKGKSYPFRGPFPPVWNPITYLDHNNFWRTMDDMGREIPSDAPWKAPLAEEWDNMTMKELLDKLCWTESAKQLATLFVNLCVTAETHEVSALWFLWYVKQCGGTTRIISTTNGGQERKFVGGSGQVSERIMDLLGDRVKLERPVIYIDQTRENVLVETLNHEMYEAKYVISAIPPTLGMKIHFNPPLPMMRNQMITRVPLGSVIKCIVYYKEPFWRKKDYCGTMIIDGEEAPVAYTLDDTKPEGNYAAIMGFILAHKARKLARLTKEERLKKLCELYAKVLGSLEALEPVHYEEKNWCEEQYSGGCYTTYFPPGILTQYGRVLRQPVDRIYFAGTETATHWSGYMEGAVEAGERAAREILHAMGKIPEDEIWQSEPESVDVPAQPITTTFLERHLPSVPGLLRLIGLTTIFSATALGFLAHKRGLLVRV
Assay: MAO-B activity assay (MAO-Glo assay kit)
Conditions: 4 μM substrate, 30 mins pre-incubation
pIC50: −log10 of the molar value.
measure: pIC50

Examples from the recorded data:
[
  {
    "molecule": "CC(C)C(=O)N1CCC(CS(=O)(=O)c2ccc(OC/C(=C/F)CN)cc2)CC1 [compound 37]",
    "assay result": "< 4.52"
  },
  {
    "molecule": "NC/C(=C\\F)COc1ccc(S(=O)(=O)CC23CCC(C(=O)N4CCC4)(CC2)CC3)cc1 [Compound 71]",
    "assay result": "4.52 to 5.00"
  },
  {
    "molecule": "CC1(C)CCC(=O)N1CS(=O)(=O)c1ccc(OC/C(=C/F)CN)cc1 [Compound 123]",
    "assay result": "< 4.52"
  },
  {
    "molecule": "NC/C(=C\\F)COc1ccc(S(=O)(=O)CC23CCC(C4(O)CC4)(CC2)CC3)cc1 [compound 18]",
    "assay result": "4.52 to 5.00"
  },
  {
    "molecule": "NC/C(=C\\F)COc1ccc(S(=O)(=O)CC23CCC(NC(=O)C4(F)CC4)(CC2)CC3)cc1 [Compound 86]",
    "assay result": "> 5.00"
  }
]

-- ask Look at this molecule and give its reported pIC50. NC/C(=C\F)COc1ccc(S(=O)(=O)Cc2cccc(C(=O)N3CCCC3)c2)cc1 [Compound 47]
-- reply < 4.52

-- ask Look at this molecule and give its reported pIC50. CC1(C)COCC(=O)N1CS(=O)(=O)c1ccc(OC/C(=C/F)CN)cc1 [Compound 132]
-- reply > 5.00
